TESTED_ON: mouse B6 class I antigens (D^b or K^b molecules on the surface of RMA-S cells) (mouse (C57Bl/6))
Sequence (P01899 25-362, chain 1 of 2): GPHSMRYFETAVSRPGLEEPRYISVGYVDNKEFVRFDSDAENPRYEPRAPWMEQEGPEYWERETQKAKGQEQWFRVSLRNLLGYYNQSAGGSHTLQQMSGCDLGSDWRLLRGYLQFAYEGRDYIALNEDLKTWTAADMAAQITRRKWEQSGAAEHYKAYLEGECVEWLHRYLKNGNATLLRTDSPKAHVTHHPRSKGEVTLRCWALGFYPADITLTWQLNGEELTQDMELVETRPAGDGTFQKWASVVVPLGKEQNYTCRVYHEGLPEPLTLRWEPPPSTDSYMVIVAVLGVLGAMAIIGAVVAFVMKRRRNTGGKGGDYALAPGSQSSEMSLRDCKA
Sequence (P01887 21-119, chain 2 of 2, further chain): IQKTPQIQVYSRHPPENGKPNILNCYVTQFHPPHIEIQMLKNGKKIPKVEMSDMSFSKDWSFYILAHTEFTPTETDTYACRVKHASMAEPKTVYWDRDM
EXPERIMENTAL_DETAILS: binding of 9mer peptides within p117-139 to mouse B6 (H-2^b) class I, RMA-S assay as in Example 4
READOUT_NAME: Binding Affinity to Mouse MHC Class I (%)
API: value field is a number in %; no unit string.

FPNAPYLPS [WT1 peptide P128-136 …]    1

In: Output Binding Affinity to Mouse MHC Class I of PNAPYLPSC [WT1 peptide P129-137 …]
Out: 1

In: Output Binding Affinity to Mouse MHC Class I of PSQASSGQA [WT1 peptide P117-125 …]
Out: 2

In: Output Binding Affinity to Mouse MHC Class I of NAPYLPSCL [WT1 peptide P130-138 …]
Out: 79

In: Output Binding Affinity to Mouse MHC Class I of QARMFPNAP [WT1 peptide P124-132 …]
Out: 1

In: Output Binding Affinity to Mouse MHC Class I of SSGQARMFP [WT1 peptide P121-129 …]
Out: 1

In: Output Binding Affinity to Mouse MHC Class I of MFPNAPYLP [WT1 peptide P127-135 …]
Out: 2

In: Output Binding Affinity to Mouse MHC Class I of ASSGQARMF [WT1 peptide P120-128 …]
Out: 1
